- METHOD_DESCRIPTION: in vivo
- RUN_CONDITIONS: mouse, ip
Counter-ions that a name gives are not always drawn.
MEASURED_ATTRIBUTE: LD50 at 24 h (mg/kg)
Number only, in mg/kg; omit the unit.

Past entries and their recorded results:
[[record]]
compound = "CCC(C)(CC)NCC(O)COc1cccc2sncc12 (centres unmarked) [Example 16]"
recorded_result = 128

[[record]]
compound = "CCC(C)(C)NCC(O)COc1cccc2sncc12 (centres unmarked) [Example 15]"
recorded_result = 144

[[record]]
compound = "CC(C)(C)NCC(O)COc1cccc2sncc12 (centres unmarked) [Example 2, hydrochloride]"
recorded_result = 154

[[record]]
compound = "CCCC(C)NCC(O)COc1cccc2sncc12 (centres unmarked) [Example 35]"
recorded_result = 60.3

[[record]]
compound = "C#CC(C)(C)NCC(O)COc1cccc2sncc12 (centres unmarked) [Example 27]"
recorded_result = 184


**Query** Provide LD50 at 24 h value for the following compound: CCC(C)NCC(O)COc1cccc2sncc12 (centres unmarked) [Example 14]
**Result** 96.4

**Query** Assign LD50 at 24 h to the following record: COCC(C)NCC(O)COc1cccc2sncc12 (centres unmarked) [Example 29]
**Result** 135

**Query** For CC(C)NCC(O)COc1cccc2sncc12 (centres unmarked) [Example 1, hydrochloride] , write its LD50 at 24 h.
**Result** 62.1

Just for reference, patent US4168317A is where these values come from.
